test system: Pooled human hepatocytes; experiment: Hepatocyte elimination (in vitro metabolic stability, percent parent remaining by LC/MS/MS); assay type: in vitro ADME; details: TIME 15 min
endpoint name: Hepatocyte elimination, % remaining (%)

Below: 2 molecules and their reported Hepatocyte elimination, % remaining.
molecule	units label	Hepatocyte elimination, % remaining
[2H]C(CN)SSC([2H])CN (stereo not shown) [drawing 24]	%	22.6
NCCS.O=C(O)C(O)C(O)C(=O)O (stereo not shown) [Cysteamine Bitartrate, reference compound]	%	15.4

1: NCCSSCCN [Cystamine]
2: [2H]C([2H])(CN)SSC([2H])([2H])CN [drawing 25]
In terms of reported Hepatocyte elimination, % remaining, does 1 or 2 have the smaller number? Write down the label attached to your selection. 1
